Exercise: for every item that follows, state its recorded inhibition.
- Tested On: DNMT3A2/3L complex (Homo sapiens) (UniProt Q9Y6K1+Q9UJW3)
- Sequence (Q9UJW3 whole entry, looked up, the tested form may be a part): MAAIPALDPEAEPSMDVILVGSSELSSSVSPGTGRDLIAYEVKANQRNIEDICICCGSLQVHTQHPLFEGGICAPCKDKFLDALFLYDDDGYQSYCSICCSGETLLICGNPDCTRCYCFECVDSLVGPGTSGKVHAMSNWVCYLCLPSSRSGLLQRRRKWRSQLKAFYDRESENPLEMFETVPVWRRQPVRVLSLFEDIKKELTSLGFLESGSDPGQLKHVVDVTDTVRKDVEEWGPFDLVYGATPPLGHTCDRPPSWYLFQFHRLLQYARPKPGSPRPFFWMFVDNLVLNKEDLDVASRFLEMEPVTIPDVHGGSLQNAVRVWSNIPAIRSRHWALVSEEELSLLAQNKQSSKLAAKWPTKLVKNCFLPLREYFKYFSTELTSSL
- Sequence (Q9Y6K1 whole entry, looked up, the tested form may be a part): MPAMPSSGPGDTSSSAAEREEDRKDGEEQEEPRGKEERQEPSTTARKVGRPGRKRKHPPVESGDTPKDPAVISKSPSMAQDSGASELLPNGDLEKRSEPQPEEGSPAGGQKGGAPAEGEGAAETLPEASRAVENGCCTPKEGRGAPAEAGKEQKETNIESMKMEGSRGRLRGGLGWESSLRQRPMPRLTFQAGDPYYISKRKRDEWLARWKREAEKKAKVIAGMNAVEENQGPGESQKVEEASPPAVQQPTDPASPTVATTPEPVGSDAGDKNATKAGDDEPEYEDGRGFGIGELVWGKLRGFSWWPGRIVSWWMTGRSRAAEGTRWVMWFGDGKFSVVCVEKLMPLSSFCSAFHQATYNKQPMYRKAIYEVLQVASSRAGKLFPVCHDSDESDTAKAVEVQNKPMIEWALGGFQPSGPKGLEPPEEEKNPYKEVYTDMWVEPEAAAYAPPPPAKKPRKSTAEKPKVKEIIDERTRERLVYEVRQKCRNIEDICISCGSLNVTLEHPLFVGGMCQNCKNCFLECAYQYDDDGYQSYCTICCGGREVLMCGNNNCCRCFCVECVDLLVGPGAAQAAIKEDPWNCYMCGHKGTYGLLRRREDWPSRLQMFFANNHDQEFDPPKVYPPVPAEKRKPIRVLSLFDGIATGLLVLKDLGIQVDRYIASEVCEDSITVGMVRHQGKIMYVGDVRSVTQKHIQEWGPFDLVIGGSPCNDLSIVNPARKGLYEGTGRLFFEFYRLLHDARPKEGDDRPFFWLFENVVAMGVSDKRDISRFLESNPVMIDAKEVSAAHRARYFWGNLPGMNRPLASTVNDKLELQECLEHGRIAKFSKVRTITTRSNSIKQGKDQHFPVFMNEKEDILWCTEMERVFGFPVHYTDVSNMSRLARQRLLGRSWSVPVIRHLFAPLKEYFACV
- Assay: Inhibition of N-terminal His-tagged human DNMT3A (623 to 912 residues)/N-terminal GST-tagged human DNMT3L (160 to 387 residues) co-expressed in baculovirus infected Sf9 cells assessed as DNA methylation using DNA oligonucleotide IDT-01 as substrate at 100 uM preincubated for 15 mins followed by substrate addition in presence of [3H]-SAM and measured after 4 hrs by radioactive methylation assay
- Recorded Conditions: time 255.0 min
Give bare numbers, in %.

Cc1oc2ncn(Cc3ccccc3)c(=O)c2c1C(=O)Nc1ccc(S(N)(=O)=O)nc1
29.5
Cc1oc2ncn(CCN3CCCC3)c(=O)c2c1C(=O)Nc1ccc(C#N)cc1
48.6
Cc1oc2ncn(CCCN3CCCCC3)c(=O)c2c1C(=O)Nc1ccc(C#N)cc1
44
Cc1oc2ncn(CCCN3CCCC3)c(=O)c2c1C(=O)Nc1ccc(C#N)cc1
53.9
Cc1oc2ncn(CC3CCCO3)c(=O)c2c1C(=O)Nc1ccc(S(N)(=O)=O)nc1 (configuration not stated)
29.5

Hi, could you look up inhibition for each item in my list?
1. Cc1oc2ncn(C(C)c3ccccc3)c(=O)c2c1C(=O)Nc1ccc(S(N)(=O)=O)nc1 (configuration not stated)
2. Cc1sc2ncn(CCCN(C)C)c(=O)c2c1C(=O)Nc1ccc(C#N)nc1
3. Cc1oc2ncn(CCCN3CCCCC3)c(=O)c2c1C(=O)Nc1ccc(S(N)(=O)=O)nc1
4. Cc1oc2ncn(Cc3ccncc3)c(=O)c2c1C(=O)Nc1ccc(S(N)(=O)=O)nc1
5. Cc1oc2ncn(CCN3CCCCC3)c(=O)c2c1C(=O)Nc1ccc(S(N)(=O)=O)nc1

Marked response:
1. 28.6
2. 37.8
3. 89.8
4. 18.1
5. 77.7

Hello, the source for this data is ChEMBL document CHEMBL5352402, in case you need it.
